SYSTEM UNDER TEST: human recombinant P2X7 receptor (Homo sapiens (Human), UniProt Q99572)
Sequence (Q99572 whole entry): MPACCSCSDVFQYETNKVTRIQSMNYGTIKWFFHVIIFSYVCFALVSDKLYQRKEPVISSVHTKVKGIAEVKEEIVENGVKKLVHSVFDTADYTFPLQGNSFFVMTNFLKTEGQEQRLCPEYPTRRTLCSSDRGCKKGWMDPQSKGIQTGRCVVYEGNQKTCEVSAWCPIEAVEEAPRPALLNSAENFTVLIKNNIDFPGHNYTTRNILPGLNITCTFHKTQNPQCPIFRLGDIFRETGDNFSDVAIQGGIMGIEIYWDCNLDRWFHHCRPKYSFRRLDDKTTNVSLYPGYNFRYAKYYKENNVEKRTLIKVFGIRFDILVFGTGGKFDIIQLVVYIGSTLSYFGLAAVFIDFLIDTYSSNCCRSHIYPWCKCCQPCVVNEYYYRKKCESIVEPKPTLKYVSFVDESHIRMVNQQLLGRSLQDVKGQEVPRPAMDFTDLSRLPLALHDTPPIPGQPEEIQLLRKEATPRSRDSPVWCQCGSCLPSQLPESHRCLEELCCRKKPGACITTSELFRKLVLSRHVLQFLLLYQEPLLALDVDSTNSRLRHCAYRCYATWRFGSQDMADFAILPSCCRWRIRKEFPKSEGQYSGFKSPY
ASSAY REMARKS: YO-PRO assay: P2X7 receptor antagonistic activity (ATP-induced YO-PRO-1 uptake, FLIPR)
SETUP CONDITIONS: read-out: IC50 [nM], antagonistic activities with respect to the P2X7 receptor; HEK-293 cells expressing human recombinant P2X7 receptor; YO-PRO-1 fluorescence; ATP 250 μM, 90 minutes; highest concentration 10 μM
Recorded IC50, one value per entry.
Give just the number in nM; leave the unit off.

Solved cases (7 shown):
>  <MOLECULE>
NC(=O)C1CCCCC1NC(=O)C1COc2ncccc21 (centres unmarked)

>  <UNITS LABEL>
nM

>  <IC50>
5880

$$$$
>  <MOLECULE>
O=C(N[C@H](CO)c1ccc(Cl)cc1Cl)[C@H]1CCOc2ncccc21 (mixture of isomers)

>  <UNITS LABEL>
nM

>  <IC50>
70.8

$$$$
>  <MOLECULE>
O=C(NCC(c1cnc(C(F)(F)F)nc1)N1CCC(F)(F)CC1)C1COc2ncccc21 (centres unmarked)

>  <UNITS LABEL>
nM

>  <IC50>
46.9

$$$$
>  <MOLECULE>
Cc1cc(Cl)cc(Cl)c1CNC(=O)C1COc2ncccc21 (single isomer, unassigned) [Example 4]

>  <UNITS LABEL>
nM

>  <IC50>
2.9

$$$$
>  <MOLECULE>
O=C(NC1CC1c1ccccc1)C1COc2ncccc21 (centres unmarked)

>  <UNITS LABEL>
nM

>  <IC50>
4850

$$$$
>  <MOLECULE>
O=C(NCC(c1cnc(C(F)(F)F)nc1)N1CCOCC1)C1COc2ncccc21 (centres unmarked) [Example 84]

>  <UNITS LABEL>
nM

>  <IC50>
20.8

$$$$
>  <MOLECULE>
O=C(NCC(c1cnc(C(F)(F)F)nc1)N1CCOCC1)C1COc2ncccc21 (single isomer, unassigned) [Example 81]

>  <UNITS LABEL>
nM

>  <IC50>
7520

$$$$

Then this molecule:
// query So what IC50 did O=C(NCc1c(Cl)cc(Cl)cc1CO)C1COc2ncccc21 (single isomer, unassigned) [Example 24] get with human recombinant P2X7 receptor (Homo sapiens (Human), UniProt Q99572)?
// result 39.4

----------
SYSTEM UNDER TEST: human recombinant P2X7 receptor (Homo sapiens (Human))
ASSAY REMARKS: YO-PRO assay: P2X7 receptor antagonistic activity (ATP-induced YO-PRO-1 uptake, FLIPR)
We label by threshold. Values of IC50 strictly beneath 200 nM are true (1). Values of 200 nM and up are false (0).

Below are worked cases with known answers.
>  <MOLECULE>
O=C(NCc1c(Cl)cc(Cl)cc1C(F)(F)F)C1COc2ncccc21 (racemic) [Example 68]

>  <GROUP>
true (1)

$$$$
>  <MOLECULE>
O=C(NCc1ccc(F)cc1Cl)C1CCOc2ncccc21 (racemic) [Example 32]

>  <GROUP>
true (1)

$$$$
>  <MOLECULE>
O=C(NCc1c(Cl)cc(Cl)cc1COCCO)C1COc2ncccc21 (racemic) [Example 93]

>  <GROUP>
true (1)

$$$$
>  <MOLECULE>
O=C(NCc1c(Cl)cccc1CO)C1COc2ncccc21 (racemic) [Example 118]

>  <GROUP>
false (0)

$$$$
>  <MOLECULE>
O=C(NCCc1ccc(Cl)cc1Cl)C1COc2ncccc21 (racemic) [Example 49]

>  <GROUP>
true (1)

$$$$
>  <MOLECULE>
Cc1cc(Cl)cc(Cl)c1CNC(=O)C1(F)CCOc2ncccc21 (racemic) [Example 12]

>  <GROUP>
true (1)

$$$$
>  <MOLECULE>
CN(Cc1ccc(Cl)cc1)C(=O)C1COc2ncccc21 (racemic) [Example 48]

>  <GROUP>
false (0)

$$$$
>  <MOLECULE>
O=C1CC(NC(=O)C2COc3ncccc32)c2ccccc21 (racemic) [Example 88]

>  <GROUP>
false (0)

$$$$

// query Quick check: IC50 of O=C(NCc1cccc(C(F)(F)F)c1Cl)C1CCOc2ncccc21 (racemic) [Example 40] under 200 nM?
// result true (1)

// query Same thing, different molecule: O=C(NCC1(c2ccccc2)CCCCC1)C1CCOc2ncccc21 (racemic) [Example 54]
// result true (1)

// query Continue with Cc1ncc(C(CNC(=O)C2COc3ncccc32)N2CCC(F)(F)CC2)cn1 (single isomer, unassigned) [Example 28]
// result true (1)

// query Then what about the molecule O=C(NC1CCc2cc(Cl)ccc21)C1COc2ncccc21 (single isomer, unassigned) [Example 99] ?
// result false (0)

// query Follow-up entry: O=C(NCc1c(Cl)cc(Cl)cc1C1CC1)C1COc2ncccc21 (racemic) [Example 21]
// result true (1)

// query Same question for O=C(NCc1c(F)cc(Cl)cc1Cl)C1COc2ncccc21 (racemic) [Example 15] please.
// result true (1)

// query Could you do the same for O=C(NCc1cccc(Cl)c1Cl)C1COc2ncccc21 (racemic) [Example 45] , please?
// result true (1)

// query Proceed to O=C(NCc1cccc(Cl)c1Cl)C1(F)COc2ncccc21 (racemic) [Example 20]
// result true (1)

// query Also O=C(NCc1ccc(Cl)cc1)C1CCOc2ncccc21 (racemic) [Example 35] ?
// result false (0)

// query # iterate: Cc1cc(Cl)cc(Cl)c1CNC(=O)C1(F)COc2ncccc21 (racemic) [Example 11]
// result true (1)

----------
SYSTEM UNDER TEST: human recombinant P2X7 receptor (Homo sapiens (Human))
ASSAY REMARKS: YO-PRO assay: P2X7 receptor antagonistic activity (ATP-induced YO-PRO-1 uptake, FLIPR)
SETUP CONDITIONS: read-out: IC50 [nM], antagonistic activities with respect to the P2X7 receptor
MEASUREMENT LABEL: IC50 (nM)
Response body: numeric value in nM, unit text excluded.

>  <COMPOUND>
O=C(N[C@H](CO)C1CCCCC1)[C@H]1CCOc2ncccc21 (mixture of isomers) [Example 8]

>  <IC50 / nM>
127

$$$$

// query Can you share its IC50? I mean this compound: Cc1cc(Cl)cc(Cl)c1CNC(=O)C1COc2c1ccc[n+]2[O-] (racemic) [Example 115]
// result 35.4

// query Consider next the compound Cc1cc(Cl)cc(Cl)c1CNC(=O)C1CCOc2c1ccc[n+]2[O-] (racemic) [Example 41] in the same way.
// result 16.3

----------
SYSTEM UNDER TEST: human recombinant P2X7 receptor (Homo sapiens (Human), UniProt Q99572)
ASSAY REMARKS: YO-PRO assay: P2X7 receptor antagonistic activity (ATP-induced YO-PRO-1 uptake, FLIPR)
pIC50: −log10 of the molar value.
Respond with class 1 for pIC50 values of 7 and above, class 0 for values below.

Consider the following illustrative entries.
>  <COMPOUND>
O=C(NC1(c2ccc(Cl)cc2Cl)CC1)C1CCOc2ncccc21 (racemic)

>  <GROUP>
class 0

$$$$
>  <COMPOUND>
O=C(NCc1c(Cl)cc(Cl)cc1CO)C1CCOc2ncccc21 (racemic)

>  <GROUP>
class 1

$$$$
>  <COMPOUND>
NC(=O)C1(NC(=O)C2COc3ncccc32)CCCC1 (racemic)

>  <GROUP>
class 0

$$$$

// query Form field: pIC50 at least 7? Entry: O=C(NCc1cccc(C(F)(F)F)c1Cl)C1COc2ncccc21 (racemic)
// result class 1

// query Follow-up item: O=C(NCc1ccc(C(F)(F)F)cc1)C1CCOc2ncccc21 (racemic)
// result class 0

// query And what about the compound [2H]C([2H])([2H])c1cc(Cl)cc(Cl)c1CNC(=O)C1COc2ncccc21 (single isomer, unassigned) [Example 98] ?
// result class 1

// query For O=C(NCc1ccc(Cl)cc1Cl)C1CCOc2ncccc21 (racemic) then?
// result class 1

----------
SYSTEM UNDER TEST: human recombinant P2X7 receptor (Homo sapiens (Human))
ASSAY REMARKS: YO-PRO assay: P2X7 receptor antagonistic activity (ATP-induced YO-PRO-1 uptake, FLIPR)
MEASUREMENT LABEL: pIC50
# pIC50 = -log10(concentration in molar units)

// query Form field: reported pIC50 of O=C(NCC1(O)CCCCC1)C1CCOc2ncccc21 (racemic)
// result 5.50

// query Cool, now O=C(NCc1ccc(F)cc1Cl)C1COc2ncccc21 (racemic)
// result 7.06

// query Same again, this time with COCc1cc(Cl)cc(Cl)c1CNC(=O)C1COc2ncccc21 (racemic)
// result 7.84

// query For O=C(NCc1cccc(C(F)(F)F)c1Cl)C1(F)COc2ncccc21 (racemic) then?
// result 7.38

----------
SYSTEM UNDER TEST: human recombinant P2X7 receptor (Homo sapiens (Human))
ASSAY REMARKS: YO-PRO assay: P2X7 receptor antagonistic activity (ATP-induced YO-PRO-1 uptake, FLIPR)
SETUP CONDITIONS: read-out: IC50 [nM], antagonistic activities with respect to the P2X7 receptor; HEK-293 cells expressing human recombinant P2X7 receptor; YO-PRO-1 fluorescence; ATP 250 μM, 90 minutes; highest concentration 10 μM
Below: a set of entries, each annotated with reported IC50.
Only the number, expressed in nM, is required.

Example entries and their recorded answers appear below.
>  <COMPOUND>
O=C(NCC(c1cnc(C(F)(F)F)nc1)N1CCOCC1)C1COc2ncccc21 (single isomer, unassigned) [Example 82]

>  <IC50 [nM]>
2230

$$$$
>  <COMPOUND>
O=C(N[C@H](CO)c1ccc(Cl)cc1Cl)C1COc2ncccc21 (single isomer, unassigned) [Example 6]

>  <IC50 [nM]>
621

$$$$
>  <COMPOUND>
C[C@@H](NC(=O)C1COc2ncccc21)c1ccc(Cl)cc1Cl (some centres unmarked) [Example 71]

>  <IC50 [nM]>
36.5

$$$$
>  <COMPOUND>
O=C(NCc1c(Cl)cc(Cl)cc1Br)C1COc2ncccc21 (single isomer, unassigned) [Example 79]

>  <IC50 [nM]>
51.1

$$$$
>  <COMPOUND>
O=C(N[C@H](CO)c1ccc(Cl)cc1Cl)C1COc2ncccc21 (single isomer, unassigned) [Example 7]

>  <IC50 [nM]>
117

$$$$

// query Sample Cc1cc(Cl)cc(Cl)c1CNC(=O)C1CCOc2ncccc21 (single isomer, unassigned) [Example 17] — what was its IC50?
// result 1.3

// query Request: O=C(N[C@@H]1CCCc2cccc(Cl)c21)C1COc2ncccc21 (some centres unmarked) [Example 112]
// result 9.5

// query Next compound: O=C(N[C@@H]1CCCc2ccccc21)C1COc2ncccc21 (some centres unmarked) [Example 108]
// result 191
